- System: Influenza viruses
- Procedure text: Mouse-Survival Test (Test No. 1), Influenza virus strain not given
- Format: in vivo, mice
- Measurement setup: unidentified influenza virus, ip, 360 h, read-out: Survival Index (S.I.)
Please respond with reported response vs control in vivo at 500 mg/kg for every item in the list.

Entry smiles | response vs control in vivo at 500 mg/kg
CCCc1[nH]nc(-c2ccncc2)c1-c1ccccc1O | 184%
CC(C)c1[nH]nc(-c2ccncc2)c1-c1ccccc1O | 269%
CCCCn1nc(CC)c(-c2ccccc2O)c1-c1ccncc1 | 191%
CCc1nn(C)c(-c2ccncc2)c1-c1ccccc1O | 217%

Batch: response vs control in vivo at 500 mg/kg for all items listed.
1. CCc1[nH]nc(-c2ccncc2)c1-c1ccccc1O
2. CCc1nn(C(C)C)c(-c2ccncc2)c1-c1ccccc1O

Given back:
["171%", "191%"]

Batch: response vs control in vivo at 500 mg/kg for all items listed.
1. CCCCc1[nH]nc(-c2ccncc2)c1-c1ccccc1O
2. COc1ccc(O)c(-c2c(-c3ccncc3)n[nH]c2C)c1
3. Cc1[nH]nc(-c2ccncc2)c1-c1ccccc1O

Given back:
1: 162%; 2: 129%; 3: 129%

----------
- Test system: Influenza viruses
- Procedure text: Mouse-Survival Test (Test No. 1), Influenza virus strain not given
- Format: in vivo, mice
- Measurement setup: unidentified influenza virus, ip, 360 h, read-out: Survival Percent
Measurement label: responders at 500 mg/kg (%)
Numbers only, in %.

Some compounds with known responders at 500 mg/kg results, for comparison:
Compound | Test value
Cc1[nH]nc(-c2ccncc2)c1-c1ccccc1O [Compound B] | 0
CCCCn1nc(CC)c(-c2ccccc2O)c1-c1ccncc1 [Compound I] | 14
CCc1[nH]nc(-c2ccncc2)c1-c1ccccc1O [Compound A] | 37.5
CCCc1[nH]nc(-c2ccncc2)c1-c1ccccc1O [Compound C] | 50

Field: next compound
Asked: Sample COc1ccc(O)c(-c2c(-c3ccncc3)n[nH]c2C)c1 [Compound F] — what was its responders at 500 mg/kg?
Given back: 0

----------
Please respond with reported responders at 500 mg/kg for every item in the list.
- Test system: Influenza viruses
- Procedure text: Mouse-Survival Test (Test No. 1), Influenza virus strain not given
- Format: in vivo, mice
- Measurement setup: unidentified influenza virus, ip, 360 h, read-out: Survival Percent
Answers are plain numbers, in %.

Some compounds with known responders at 500 mg/kg results, for comparison:
Entry smiles | Assay target | Value units | responders at 500 mg/kg
CCCCc1[nH]nc(-c2ccncc2)c1-c1ccccc1O | Influenza viruses | % | 10
CCc1nn(C)c(-c2ccncc2)c1-c1ccccc1O | Influenza viruses | % | 60
CCc1nn(C(C)C)c(-c2ccncc2)c1-c1ccccc1O | Influenza viruses | % | 30

Field: next compound
Asked: // map CC(C)c1[nH]nc(-c2ccncc2)c1-c1ccccc1O to recorded responders at 500 mg/kg (system: Influenza viruses)
Given back: 100

----------
- Tested on: Influenza viruses
- Procedure text: Mouse-Survival Test (Test No. 1), Influenza virus strain not given
- Type: in vivo, mice
- Measurement setup: unidentified influenza virus, ip, 360 h, read-out: Survival Index (S.I.)
Measurement label: response vs control in vivo at 50 mg/kg (%)
Numbers only, in %.

Entry smiles | Assay target | response vs control in vivo at 50 mg/kg (%)
CC(C)c1[nH]nc(-c2ccncc2)c1-c1ccccc1O | Influenza viruses | 131
CCCCc1[nH]nc(-c2ccncc2)c1-c1ccccc1O | Influenza viruses | 130
CCc1nn(C)c(-c2ccncc2)c1-c1ccccc1O | Influenza viruses | 130
CCc1[nH]nc(-c2ccncc2)c1-c1ccccc1O | Influenza viruses | 137
CCCCn1nc(CC)c(-c2ccccc2O)c1-c1ccncc1 | Influenza viruses | 148

Field: next compound
Asked: Sample CCc1nn(C(C)C)c(-c2ccncc2)c1-c1ccccc1O — what was its response vs control in vivo at 50 mg/kg?
Given back: 135
